- PROTOCOL TEXT: Cytotoxicity against African green monkey Vero cells assessed as reduction in cell viability by MTT assay
- Format: cell-based
- CONDITION NOTES: chlorocebus sabaeus, read-out: MIC
ASSAY METRIC: MCC (µg/mL)
Supply the numeric figure in µg/mL, leaving out any unit text.

Hello, please tell me recorded MCC for this one: `CCCC(=O)C1=C(O)C(C)(C)C(O)=C(Cc2c(O)c(C)c(OC)c(C(=O)CCC)c2O)C1=O`
48.1

* * *

- Tested on: Staphylococcus aureus
- PROTOCOL TEXT: Antibacterial activity against methicillin-resistant Staphylococcus aureus
- Format: functional
ASSAY METRIC: MIC

Hello, please tell me recorded MIC for this one: `COc1ccc2cc1Oc1ccc(cc1)C[C@H]1c3cc(c(OC)cc3CCN1C)Oc1c(O)c(OC)cc3c1[C@H](C2)N(C)CC3`
6 to 128 µg/mL

Hello, please tell me recorded MIC for this one: COc1cc(OC)c(C2COc3c(cc(/C=C/C(=O)c4ccco4)c4c3C=CC(C)(C)O4)C2)cc1/C=C/C(=O)c1ccco1 (stereo not drawn)
12.5 µg/mL

Hello, please tell me recorded MIC for this one: CCCCOc1c(OC)cc(/C=C2\SC(=O)NC2=O)c2c1CN1CCc3cc4c(cc3C1C2)OCO4 (stereo not drawn)
8 µM

Hello, please tell me recorded MIC for this one: O=C1NC[C@@H](c2c[nH]c3cc(Br)ccc23)N[C@H]1c1c[nH]c2cc(Br)ccc12 (relative stereo) [CIS-3,4-DIHYDROHAMACANTHIN B]
12.5 µg/mL

* * *

- Test system: Staphylococcus aureus
- PROTOCOL TEXT: Antibacterial activity against methicillin-resistant Staphylococcus aureus ATCC 43300
- Assay type: functional
ASSAY METRIC: MIC

Some molecules with known MIC results, for comparison:
- MOLECULE: "CCCCCCC(C)/C=C(\\C)C(=O)O[C@@]1(C)C(=O)C2=COC(c3c(C)cccc3O)=CC2=C(Cl)C1=O (some centres undefined)"
  MIC: "3.13 to 6.25 µg/mL"
- MOLECULE: "CCCCCCC(C)/C=C(\\C)C(=O)O[C@@]1(C)C(=O)C2=COC(C3=C(C)CC(O)CC3=O)=CC2=C(Cl)C1=O (some centres undefined)"
  MIC: "3.13 to 6.25 µg/mL"
- MOLECULE: "CCCCCCC(C)/C=C(\\C)C(=O)O[C@@]1(C)C(=O)C=C2C=C(c3c(C)cccc3O)OC=C2C1=O (some centres undefined)"
  MIC: "3.13 to 6.25 µg/mL"

Field: next molecule
Hello, please tell me recorded MIC for this one: `CC1=C[C@H]2c3c(O)c(O)c4oc5cc(O)cc(O)c5c(=O)c4c3[C@H](c3cc(O)c(O)c4oc5cc(O)cc(O)c5c(=O)c34)[C@H]2C(C)(C)C1`
3.9 µg/mL

* * *

- PROTOCOL TEXT: Inhibition of methicillin-resistant Staphylococcus aureus pyruvate kinase
pIC50: −log10 of the molar value.
ASSAY METRIC: pIC50

Hello, please tell me recorded pIC50 for this one: O=C1NC[C@@H](c2c[nH]c3cc(Br)ccc23)N[C@H]1c1c[nH]c2cc(Br)ccc12 (relative stereo) [CIS-3,4-DIHYDROHAMACANTHIN B]
7.22 to 7.80

* * *

Each entry below lists one item and its recorded MIC value.
- System: Staphylococcus aureus
- PROTOCOL TEXT: Antibacterial activity against methicillin-resistant Staphylococcus aureus
- Assay type: functional

- COMPOUND: "COc1ccc2cc1Oc1ccc(cc1)C[C@H]1c3cc(c(OC)cc3CCN1C)Oc1c(OC)c(OC)cc3c1[C@H](C2)N(C)CC3"
  MIC: "6 to 128 µg/mL"

Hello, please tell me recorded MIC for this one: `COc1c(OCCCCN)cc2oc3cc(OCCCCN)c(CC=C(C)C)c(O)c3c(=O)c2c1CC=C(C)C`
1560 to 3120 µM

Hello, please tell me recorded MIC for this one: `CN[C@H](CC(C)C)C(=O)N[C@H]1C(=O)N[C@@H](CC(N)=O)C(=O)N[C@H]2C(=O)N[C@H]3C(=O)N[C@H](C(=O)N[C@H](C(=O)O)c4cc(O)cc(O)c4-c4cc3ccc4O)[C@H](O)c3ccc(c(Cl)c3)Oc3cc2cc(c3O[C@@H]2O[C@H](CO)[C@@H](O)[C@H](O)[C@H]2O[C@H]2C[C@](C)(N)[C@H](O)[C@H](C)O2)Oc2ccc(cc2Cl)[C@H]1O`
1.25 µg/mL

Hello, please tell me recorded MIC for this one: COc1ccc2c(c1OC)C(O)N(C)c1c-2ccc2cc3c(cc12)OCO3 (centres undefined)
0.49 to 15.6 µg/mL
